Each recorded value in this set is attributed to patent US7786043B2.

System: Alternaria solani
Method summary: Use Example 1: activity against early blight caused by Alternaria solani (tomato plants)
Type: in vivo
Experimental context: 250 ppm, tomato plants sprayed one day before infection, rated after 5 days; untreated plants 90% infected
Readout name: infection

>>> df
                                   compound  reported_measurement
0  Cc1ccc(-c2ncc3c(n2)CCCC3)nc1-c1ccc(F)cc1 [reference compound]                   80%
1  Fc1ccc(-c2cccc(-c3ncc4c(n3)CCCCC4)n2)cc1          no infection
2    Cc1ccc(-c2ncc3c(n2)CCCCC3)nc1-c1ccccc1          no infection
3  c1ccc(-c2cccc(-c3ncc4c(n3)CCCCCC4)n2)cc1          no infection
4  Cc1ccc(-c2ncc3c(n2)CCCCC3)nc1-c1ccc(F)cc1          no infection
